experiment: Tmax in cynomolgus monkey at 0.3 mg/kg, po; assay type: ADME, organism-based, Macaca fascicularis; details: in vivo
assay_metric: Tmax (h)
# output: bare number, implied unit h

Give the measured Tmax of COc1cc2c(cc1OC(C)C)[C@H](c1ccc(Cl)cc1)N(c1ccc(N(C)C[C@H]3CC[C@H](N4CCN(C)C(=O)C4)CC3)cc1)C(=O)C2 . 1.3

====

tested on: HCT-116; test: Inhibition of cell proliferation of human HCT116 cells deficient with p53 gene
assay_metric: pIC50
In textbook form, pIC50 equals minus log to base ten of the concentration in mol/L.

Lab request: please report pIC50 under test system HCT-116 for COc1cc2c(cc1OC(C)C)[C@H](c1ccc(Cl)cc1)N(c1ccc(N(C)C[C@H]3CC[C@H](N4CCN(C)C(=O)C4)CC3)cc1)C(=O)C2 4.80

====

target: Tumour suppressor p53/oncoprotein Mdm2 (Homo sapiens); test: Inhibition of MDM2/p53 interaction (unknown origin) using biotinylated MDM2 and Cy5-p53 (18 to 26 amino acids) by TR-FRET assay
Sequence (P04637 whole entry, the tested form may be a part): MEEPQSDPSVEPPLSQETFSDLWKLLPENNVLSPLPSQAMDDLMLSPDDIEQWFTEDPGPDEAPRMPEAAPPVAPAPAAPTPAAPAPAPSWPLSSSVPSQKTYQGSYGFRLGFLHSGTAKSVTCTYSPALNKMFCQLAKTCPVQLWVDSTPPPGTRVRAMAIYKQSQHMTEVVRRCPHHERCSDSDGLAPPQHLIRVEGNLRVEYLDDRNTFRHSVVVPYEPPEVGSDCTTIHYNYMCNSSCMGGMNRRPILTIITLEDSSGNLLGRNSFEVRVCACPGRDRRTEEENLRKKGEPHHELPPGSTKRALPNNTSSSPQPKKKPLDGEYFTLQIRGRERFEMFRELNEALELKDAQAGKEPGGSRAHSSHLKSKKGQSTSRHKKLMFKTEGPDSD
Sequence (Q00987 whole entry, the tested form may be a part): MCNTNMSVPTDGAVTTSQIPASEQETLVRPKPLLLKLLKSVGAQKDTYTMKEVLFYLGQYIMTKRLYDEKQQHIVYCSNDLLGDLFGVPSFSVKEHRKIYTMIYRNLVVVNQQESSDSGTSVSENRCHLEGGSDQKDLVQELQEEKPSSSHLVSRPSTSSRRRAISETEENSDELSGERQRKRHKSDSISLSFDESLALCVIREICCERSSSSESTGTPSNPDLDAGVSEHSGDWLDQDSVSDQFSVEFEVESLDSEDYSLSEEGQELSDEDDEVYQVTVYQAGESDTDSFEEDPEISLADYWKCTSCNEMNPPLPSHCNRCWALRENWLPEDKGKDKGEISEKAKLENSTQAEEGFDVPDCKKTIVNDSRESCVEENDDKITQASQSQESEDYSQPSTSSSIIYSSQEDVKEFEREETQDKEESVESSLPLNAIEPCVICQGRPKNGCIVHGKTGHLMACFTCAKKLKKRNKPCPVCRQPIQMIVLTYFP
assay_metric: pIC50
To interpret pIC50, take it as minus log10 of a concentration measured in moles per litre.

Consider the reported pIC50 for these compounds:
# test_smiles, value
rows = [
    ("COc1cc2c(cc1OC(C)C)[C@H](c1ccc(Cl)cc1)N(c1ccc(N(C)C[C@H]3CC[C@H](N4CNC(=O)C4)CC3)cc1)C(=O)C2", 8.77),
    ("COc1cc2c(cc1OC(C)C)[C@H](c1ccc(Cl)cc1)N(c1ccc(N(C)C[C@H]3CC[C@H](N4CC(=O)N(C)C4)CC3)nc1)C(=O)C2", 7.94),
    ("COc1cc2c(cc1OC(C)C)[C@H](c1ccc(Cl)cc1)N(c1ccc(N(C)C[C@H]3CC[C@H](N(C)C)CC3)nc1)C(=O)C2", 8.80),
]

Enter reported pIC50 observed with Tumour suppressor p53/oncoprotein Mdm2 (Homo sapiens) for CCC(=O)N[C@H]1CC[C@H](CN(C)c2ccc(N3C(=O)Cc4cc(OC)c(O[C@H](C)CC)cc4[C@@H]3c3ccc(Cl)cc3)cc2)CC1 7.70

====

test: Permeability in human Caco2 cells assessed as drug recovery during apical to basolateral transport; assay type: ADME, cell-based; details: Caco-2, read-out: Drug recovery
assay_metric: recovery

Given the entry CC[C@@H](C)Oc1cc2c(cc1OC)CC(=O)N(c1ccc(N(C)C[C@H]3CC[C@H](N(C)C)CC3)cc1)[C@H]2c1ccc(Cl)cc1 , report its measured recovery. < 30%

====

assay: Protein binding in OF1 mouse plasma by equilibrium dialysis method; assay type: ADME, cell-free; conditions: read-out: PPB
assay_metric: fraction unbound

Given the compound COc1cc2c(cc1OC(C)C)[C@H](c1ccc(Cl)cc1)N(c1ccc(N(C)C[C@H]3CC[C@H](N4CCN(C)C(=O)C4)CC3)cc1)C(=O)C2 , what is its reported fraction unbound? < 0.01

====

target: E3 ubiquitin-protein ligase XIAP (Homo sapiens, UniProt P98170); experiment: Inhibition of XIAP (unknown origin) assessed as inhibition of XIAP-BIR3 interaction by TR-FRET assay
Sequence (P98170 whole entry): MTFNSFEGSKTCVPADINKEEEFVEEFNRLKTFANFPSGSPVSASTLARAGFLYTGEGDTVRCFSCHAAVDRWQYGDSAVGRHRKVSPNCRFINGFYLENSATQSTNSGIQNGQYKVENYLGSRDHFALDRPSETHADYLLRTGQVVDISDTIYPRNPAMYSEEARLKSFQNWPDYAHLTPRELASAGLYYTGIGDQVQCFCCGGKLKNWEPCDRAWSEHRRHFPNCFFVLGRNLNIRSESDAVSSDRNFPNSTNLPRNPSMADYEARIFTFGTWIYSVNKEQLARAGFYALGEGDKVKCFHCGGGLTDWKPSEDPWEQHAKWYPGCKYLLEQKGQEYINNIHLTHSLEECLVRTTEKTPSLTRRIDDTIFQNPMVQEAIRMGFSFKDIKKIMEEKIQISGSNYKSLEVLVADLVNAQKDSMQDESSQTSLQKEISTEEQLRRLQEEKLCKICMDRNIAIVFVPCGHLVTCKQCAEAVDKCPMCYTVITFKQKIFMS
assay_metric: IC50

So what does the record say about IC50 for COc1cc2c(cc1OC(C)C)[C@H](c1ccc(Cl)cc1)N(c1ccc(N(C)C[C@H]3CC[C@H](N4CCN(C)C(=O)C4)CC3)cc1)C(=O)C2 ? > 50 µM

====

molecular target: Cytochrome P450 3A4 (Homo sapiens); assay: Time dependent inhibition of CYP3A4 in human liver microsomes
Sequence (P08684 whole entry): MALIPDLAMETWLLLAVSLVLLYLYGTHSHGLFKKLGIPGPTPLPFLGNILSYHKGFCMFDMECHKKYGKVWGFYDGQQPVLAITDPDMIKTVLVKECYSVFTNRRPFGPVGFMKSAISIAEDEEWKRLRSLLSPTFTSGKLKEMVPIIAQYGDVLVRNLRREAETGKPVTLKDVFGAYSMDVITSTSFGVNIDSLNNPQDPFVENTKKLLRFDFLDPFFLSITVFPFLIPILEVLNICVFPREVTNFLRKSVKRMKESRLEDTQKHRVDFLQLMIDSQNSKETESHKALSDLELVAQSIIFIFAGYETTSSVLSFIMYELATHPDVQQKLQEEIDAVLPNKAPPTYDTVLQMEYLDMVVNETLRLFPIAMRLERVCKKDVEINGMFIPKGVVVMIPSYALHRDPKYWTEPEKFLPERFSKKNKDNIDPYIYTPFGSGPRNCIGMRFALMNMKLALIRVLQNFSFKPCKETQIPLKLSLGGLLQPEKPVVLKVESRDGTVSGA
Below, each of the compounds is paired with its reported pIC50 value.
In plain terms, pIC50 is the concentration in mol/L turned into minus its base-10 logarithm.

Answered cases to consult:
# test_smiles, pIC50
rows = [
    ("COc1cc2c(cc1OC(C)C)[C@H](c1ccc(Cl)cc1)N(c1ccc(N(C)C[C@H]3CC[C@H](N(C)C)CC3)nc1)C(=O)C2", 5.30),
    ("COc1cc2c(cc1OC(C)C)[C@H](c1ccc(Cl)cc1)N(c1ccc(N(C)C[C@H]3CC[C@H](N4CC(=O)N(C)C4)CC3)nc1)C(=O)C2", 4.88),
    ("COc1cc2c(cc1OC(C)C)[C@H](c1ccc(Cl)cc1)N(c1ccc(N(C)C[C@H]3CC[C@H](N(C)C)CC3)cc1)C(=O)C2", 5.03),
]

Now for a further compound.
# lookup: pIC50 of COc1cc2c(cc1OC(C)C)[C@H](c1ccc(Cl)cc1)N(c1ccc(N(C)C[C@H]3CC[C@H](N4CCNC(=O)C4)CC3)cc1)C(=O)C2 4.95

====

biological target: Apoptosis regulator Bcl-2 (Homo sapiens); assay: Inhibition of Bcl2 (unknown origin) assessed as inhibition of Bcl2-Bak interaction by TR-FRET assay
Sequence (P10415 whole entry): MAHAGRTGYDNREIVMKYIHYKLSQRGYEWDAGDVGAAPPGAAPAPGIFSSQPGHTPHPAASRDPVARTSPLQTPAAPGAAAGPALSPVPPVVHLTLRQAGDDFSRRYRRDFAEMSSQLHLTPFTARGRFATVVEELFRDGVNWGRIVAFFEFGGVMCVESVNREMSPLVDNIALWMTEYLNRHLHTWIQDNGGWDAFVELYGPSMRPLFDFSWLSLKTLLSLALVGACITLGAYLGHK
pIC50: −log10 of the molar value.
assay_metric: pIC50

Can you look up the measured pIC50 of COc1cc2c(cc1OC(C)C)[C@H](c1ccc(Cl)cc1)N(c1ccc(N(C)C[C@H]3CC[C@H](N4CCN(C)C(=O)C4)CC3)cc1)C(=O)C2 for me? < 4.30

====

test: Terminal half life in beagle dog at 0.1 mg/kg, iv; format: ADME, organism-based, Canis lupus familiaris; settings: in vivo, read-out: beta t1/2 (converted)
assay_metric: half-life (h)
API: value field is a number in h; no unit string.

# lookup: half-life of COc1cc2c(cc1OC(C)C)[C@H](c1ccc(Cl)cc1)N(c1ccc(N(C)C[C@H]3CC[C@H](N4CCN(C)C(=O)C4)CC3)cc1)C(=O)C2 [CGM-097] 19.8

====

test: Intrinsic clearance in monkey liver microsomes; type: ADME, Macaca mulatta; settings: rhesus monkey, read-out: CLH
assay_metric: microsomal CLint (µL/min/mg)
Expressed in µL/min/mg, but write only the number.

// solved cases for microsomal CLint follow
# compound, value_units, value
measured = [
    ("COc1cc2c(cc1OC(C)C)[C@H](c1ccc(Cl)cc1)N(c1ccc(N(C)C[C@H]3CC[C@H](N4CCN(C)C(=O)C4)CC3)cn1)C(=O)C2", "µL/min/mg", 355),
    ("COc1cc2c(cc1OC(C)C)[C@H](c1ccc(Cl)cc1)N(c1ccc(N(C)C[C@H]3CC[C@H](N4CCN(C)C(=O)C4)CC3)cc1)C(=O)C2 [CGM-097]", "µL/min/mg", 26.6),
    ("COc1cc2c(cc1OC(C)C)[C@H](c1ccc(Cl)cc1)N(c1ccc(N(C)C[C@H]3CC[C@H](N4CCNC(=O)C4)CC3)cc1)C(=O)C2", "µL/min/mg", 79.7),
    ("COc1cc2c(cc1OC(C)C)[C@H](c1ccc(Cl)cc1)N(c1ccc(N(C)C[C@H]3CC[C@H](N4CC(=O)N(C)C4)CC3)nc1)C(=O)C2", "µL/min/mg", 224),
    ("COc1cc2c(cc1OC(C)C)[C@H](c1ccc(Cl)cc1)N(c1ccc(N(C)C[C@H]3CC[C@H](N4CCN(C)C(=O)C4)CC3)nc1)C(=O)C2", "µL/min/mg", 279),
]

Continue with the next compound.
Param item = COc1cc2c(cc1OC(C)C)[C@H](c1ccc(Cl)cc1)N(c1cnc(N(C)C[C@H]3CC[C@H](N4CCN(C)C(=O)C4)CC3)cn1)C(=O)C2 ; retrieve measured microsomal CLint. 420

====

experiment: AUC (0 to 24 hrs) in human SJSA1 cells xenografted rat assessed as mouse survival at 30 mg/kg, po dosed 3 times per week; type: ADME, organism-based, SJSA-1; set-up: dose 30 mg/kg, time < 24 hr, route oral; conditions: in vivo
assay_metric: AUC at 24 h (µM·h)
Record the value in µM·h, omitting the unit from your answer.

Please look up its AUC at 24 h: COc1cc2c(cc1OC(C)C)[C@H](c1ccc(Cl)cc1)N(c1ccc(N(C)C[C@H]3CC[C@H](N4CCN(C)C(=O)C4)CC3)cc1)C(=O)C2 230

====

target: Induced myeloid leukemia cell differentiation protein Mcl-1 (Homo sapiens); test: Inhibition of Mcl1 (unknown origin) assessed as inhibition of Mcl1-Bak interaction by TR-FRET assay
Sequence (Q07820 whole entry): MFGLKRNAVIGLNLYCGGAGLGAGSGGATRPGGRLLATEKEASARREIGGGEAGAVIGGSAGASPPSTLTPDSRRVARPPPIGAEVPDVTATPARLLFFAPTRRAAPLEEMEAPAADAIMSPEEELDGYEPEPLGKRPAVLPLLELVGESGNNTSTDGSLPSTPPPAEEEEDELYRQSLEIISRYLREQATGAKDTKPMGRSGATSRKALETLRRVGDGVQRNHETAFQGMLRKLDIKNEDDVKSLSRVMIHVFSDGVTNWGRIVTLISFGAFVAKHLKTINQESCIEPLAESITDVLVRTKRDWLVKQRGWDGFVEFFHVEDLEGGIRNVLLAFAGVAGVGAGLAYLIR
assay_metric: IC50

Which IC50 is listed for COc1cc2c(cc1OC(C)C)[C@H](c1ccc(Cl)cc1)N(c1ccc(N(C)C[C@H]3CC[C@H](N4CCN(C)C(=O)C4)CC3)cc1)C(=O)C2 [CGM-097] ? > 50 µM

====

test: Protein binding in beagle dog plasma by equilibrium dialysis method; format: ADME, cell-free, Canis lupus familiaris; conditions: read-out: PPB
assay_metric: fraction unbound

What value of measured fraction unbound is listed for COc1cc2c(cc1OC(C)C)[C@H](c1ccc(Cl)cc1)N(c1ccc(N(C)C[C@H]3CC[C@H](N4CCN(C)C(=O)C4)CC3)cc1)C(=O)C2 [CGM-097] ? < 0.01

====

experiment: Clearance in Sprague-Dawley rat at 1 mg/kg, iv; format: ADME, organism-based; conditions: in vivo
assay_metric: clearance
Quick note: number first, unit second.

Reported clearance for CC[C@@H](C)Oc1cc2c(cc1OC)CC(=O)N(c1ccc(N(C)C[C@H]3CC[C@H](N(C)C)CC3)cc1)[C@H]2c1ccc(Cl)cc1 : what is it? 15 mL/min/kg

Measured values drawn from ChEMBL document CHEMBL3600357 for this set.
